- testedSystem: UniProt:Q86WV6
- assayNotes: Inhibition test of intracellular human STING (hSTING) pathway using SEAP reporter cells (HEK-Blue ISG), stimulation with Compound 3
- experimentalConditions: Compound 3 10 nM stimulation, 21 hours, read-out: hSTING inhibitory activity
Where a name gives a salt, the structure may show the parent alone.
// IC50 lookup, one value per entry

Solved cases below.
Clc1ccc2[nH]cc(Nc3nc4ccccc4[nH]3)c2c1; 1 to 10 µM
Cn1ccc(-c2ccnc3c(Nc4nc5cc(Oc6ccccc6)ccc5[nH]4)c[nH]c23)n1; 1 to 10 µM
COCCn1c(Nc2c[nH]c3ccc(Cl)nc23)nc2c(F)cc(F)cc21; ≥ 10 µM

Looking up `Clc1ccc2[nH]cc(Nc3nc4c5c(ccc4[nH]3)OCCO5)c2n1` , I found its IC50 recorded as ≥ 10 µM

Looking up CCc1ccc2[nH]cc(Nc3nc4ccc(Oc5ccc(F)cc5)cc4n3C3CC3)c2n1 [Embodiment 190, formate] , I found its IC50 recorded as 1 to 10 µM

Looking up `Cn1c(Nc2c[nH]c3ccc(Cl)nc23)nc2c(F)cccc21` , I found its IC50 recorded as ≥ 10 µM

Looking up `COCCOc1ccc2[nH]c(Nc3c[nH]c4ccc(Cl)nc34)nc2c1` , I found its IC50 recorded as ≥ 10 µM

Looking up `CN1CCC(Oc2ccc3[nH]c(Nc4c[nH]c5ccc(Cl)nc45)nc3c2)CC1` , I found its IC50 recorded as 1 to 10 µM

Looking up `Cc1ccc2c(c1)nc(Nc1c[nH]c3ccc(Cl)nc13)n2C` , I found its IC50 recorded as ≥ 10 µM

Looking up `Clc1ccc2[nH]cc(Nc3nc4cc(OC5COC5)ccc4[nH]3)c2n1` , I found its IC50 recorded as ≥ 10 µM

Looking up CN(C)CCn1c(Nc2c[nH]c3ccc(Cl)nc23)nc2ccc(Oc3ccccc3)cc21 [Embodiment 134, diformate] , I found its IC50 recorded as ≥ 10 µM

Looking up `CC(C)Oc1ccc2nc(Nc3c[nH]c4ccc(Cl)nc34)n(C)c2c1` , I found its IC50 recorded as 1 to 10 µM

Looking up `CN(C)C(=O)Cn1c(Nc2c[nH]c3ccc(Cl)cc23)nc2cc(C(F)(F)F)ccc21` , I found its IC50 recorded as ≥ 10 µM

----------
- testedSystem: human STING (hSTING) (Homo sapiens)
- Construct: host or cells: HEK-Blue ISG cells (HEK293-derived SEAP reporter line)
- Sequence (Q86WV6 whole entry H232R): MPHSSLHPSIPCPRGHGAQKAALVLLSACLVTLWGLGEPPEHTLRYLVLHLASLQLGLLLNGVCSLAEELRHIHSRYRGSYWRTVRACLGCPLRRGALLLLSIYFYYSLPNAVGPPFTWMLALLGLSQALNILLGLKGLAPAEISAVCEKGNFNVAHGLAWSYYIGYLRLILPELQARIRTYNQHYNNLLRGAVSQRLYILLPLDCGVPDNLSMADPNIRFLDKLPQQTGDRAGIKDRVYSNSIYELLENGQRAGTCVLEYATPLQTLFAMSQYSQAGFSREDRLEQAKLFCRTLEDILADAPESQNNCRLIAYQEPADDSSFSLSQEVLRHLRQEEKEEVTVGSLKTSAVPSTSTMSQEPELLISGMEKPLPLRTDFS
- assayNotes: Inhibition test of intracellular human STING (hSTING) pathway using SEAP reporter cells (HEK-Blue ISG), stimulation with Compound 3
- Assay type: cell-based
- Design: scale not given here
- experimentalConditions: Compound 3 10 nM stimulation, 21 hours
Structures can show the parent of a compound that is named as a salt.
readoutType: hSTING inhibitory activity

Solved cases below.
COC(=O)c1cccc2[nH]c(Nc3c[nH]c4ccc(Br)cc34)nc12; * *
COc1ccc2[nH]cc(Nc3nc4cc(Oc5ccccc5)ccc4[nH]3)c2n1; * *
COc1ccnc2c(Nc3nc4cc(Oc5ccccc5)ccc4[nH]3)c[nH]c12 [Embodiment 77, formate]; * *
Cn1c(Nc2c[nH]c3cc(F)c(Cl)cc23)nc2cc(C(F)(F)F)ccc21; * * *

Looking up `Ic1ccc2[nH]cc(Nc3nc4ccccc4[nH]3)c2c1` , I found its hSTING inhibitory activity recorded as * *

Looking up `OCCn1c(Nc2c[nH]c3ccc(Cl)cc23)nc2cc(OC(F)(F)F)ccc21` , I found its hSTING inhibitory activity recorded as * *

Looking up `CN(C)n1c(Nc2c[nH]c3ccc(Cl)cc23)nc2cc(C(F)(F)F)ccc21` , I found its hSTING inhibitory activity recorded as * * *

Looking up `FC(F)(F)Oc1ccc2c(c1)nc(Nc1c[nH]c3ccc(Cl)cc13)n2C1CC1` , I found its hSTING inhibitory activity recorded as * * *

Hello, the source for this data is patent US20240279205A1, in case you need it.
